Assay: in vitro
Conditions: human, In Vitro Cytotoxicity (IC50, µM) HL-60, 72 h incubation, 1–30 µM tested, mean ± SD
measurementType: IC50 at 72 h

[[record]]
compoundsmiles = "CCOP(=O)(OCC)c1c(-c2ccccc2)nnn1Cc1ccc(C)cc1"
measurementtype = "IC50 at 72 h"
reading = "> 30 µM"

[[record]]
compoundsmiles = "CCOP(=O)(OCC)c1c(-c2ccccc2)nnn1Cc1ccccc1"
measurementtype = "IC50 at 72 h"
reading = "> 30 µM"


Return reported IC50 at 72 h values for all items listed beneath this line.
1. CCCCCCCCn1nnc(-c2ccccc2)c1P(=O)(OC)OC
2. COP(=O)(OC)c1c(-c2ccccc2)nnn1Cc1ccc(C)cc1
3. CCCCCCCCn1nnc(-c2ccccc2)c1P(=O)(OCC)OCC
4. COP(=O)(OC)c1c(-c2ccccc2)nnn1Cc1ccccc1

> 30 µM
~10 µM
> 30 µM
> 30 µM
